# System tested: Alpha-1A adrenergic receptor (Rattus norvegicus, UniProt P43140)
# Sequence (P43140 whole entry): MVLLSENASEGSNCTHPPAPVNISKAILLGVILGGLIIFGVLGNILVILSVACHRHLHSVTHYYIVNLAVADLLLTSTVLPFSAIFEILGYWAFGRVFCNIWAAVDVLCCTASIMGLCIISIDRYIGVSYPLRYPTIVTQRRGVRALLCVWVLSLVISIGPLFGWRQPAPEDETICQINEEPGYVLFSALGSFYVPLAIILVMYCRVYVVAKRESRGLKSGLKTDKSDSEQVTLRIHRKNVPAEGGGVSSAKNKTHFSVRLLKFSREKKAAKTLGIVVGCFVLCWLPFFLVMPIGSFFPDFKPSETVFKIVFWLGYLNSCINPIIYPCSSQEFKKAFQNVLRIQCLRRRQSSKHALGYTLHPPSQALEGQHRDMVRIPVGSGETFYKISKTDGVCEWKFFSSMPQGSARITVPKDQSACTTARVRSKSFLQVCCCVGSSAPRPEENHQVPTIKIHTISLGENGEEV
# Assay procedure: The ability to inhibit [3H]prazosin binding to Alpha-1 adrenergic receptor in rat whole brain
Readout kind: Ki

| Molecule | Readout kind | Reported |
| --- | --- | --- |
| COc1cc(N)c(Cl)cc1C(=O)NC1CCN(CCCOc2ccc(F)cc2)CC1OC (stereo not given) [CISAPRIDE] | Ki | 0.03 µM |
| COc1cc(N)c(Cl)cc1C(=O)NC1CCN2CCCC1C2 (stereo not given) [RENZAPRIDE] | Ki | > 10 µM |
| COc1cc(N)c(Cl)cc1C(=O)N[C@H]1CN2CCC1CC2 [(R)ZACOPRIDE] | Ki | > 10 µM |
| CC(C)n1c(=O)n(C(=O)CC2CC3CCC(C2)N3C)c2ccccc21 (stereo not given) | Ki | > 10 µM |
| COc1cc(N)c(Cl)cc1C(=O)NC[C@@H]1CCN2CCC[C@@H]12 (relative stereo) | Ki | > 10 µM |

Where these numbers come from: ChEMBL document CHEMBL1125444
